Test system: MS2 coat protein
Experiment: apparent KD of MS2 coat protein; higher = weaker reporter binding
Conditions: Eterna round: R107; input ligand: theophylline 20 uM
Provide the reported apparent KD of MS2 coat protein of each item.
Answers are plain numbers, in nM.

Recorded results for 2 sequences are shown here.
AGAGUCUAGUCGGCCGCCACUCAUGUCCAAUGGACAUGAGGAUCACCCAUGUACCGAAGGUACAUGAGGACCGGGACUGGACUCA [Omei Tryp B SS C v6] = 496
CGUGAUCCCUGUGAUACCAGAAGUACAUGAGGAUCACCCAUGUCAAACACAAAACCAAGCUUCCCUUGGCAGCAUAGUCGUUAAG [Esmaenbiza] = 240

Working through the 4 sequences below one at a time, give apparent KD of MS2 coat protein for each.
1. UUCGUUUGCGGAAGGAGCGACGGACAUCGGUGAACGACGGACAUGAGGAUCACCCAUGUACGUCAGGUAGGUCGCCGCUAAGAGU [Enbiceri]
2. UCGGGCAGAGCGGCCGCCACUGUUUGGCGUGCGGAUGAAGGAACAUGAGGAUCACCCAUGUAGAUUAGGACCGGGCUUGCGGAGA [ddrmullin]
3. UGUCAAUCGCCGGAUACCAGCCUAACUGAAGGAAAUCUAAACAUGAGGAUCACCCAUGUAGGCCCUUGGCAGCCGAGUAAGUACA [theeternabot_exclusion_MS2_Theo_B_15]
4. UAACAUGAGGAUCACCCAUGUUUGGAGAAACGAGGACCGGUACGGCCGCCACUCGAGGAGUGGAUGAGAAGUGGGAUAGAGUGAU [Same State Trp A GF6]

A)
1: 13.8; 2: 18.1; 3: 65.4; 4: 19.6
